- TEST TARGET: T1, recombinant mouse α5β1 integrin (mouse, UniProt P11688 45-999; P09055 21-728)
- T1 construct: bought recombinant heterodimer (R&D Systems cat. 7728-A5) coated on the plate; also called rm-α5β1
- ASSAY NAME: ELISA, coated integrin, supernatant 1:10
Absorbance 450 nm vs 0.08 A450: at or above is Y, below is N.

BINDER | LABEL VALUE
A-11G01 (antibody, V domains shown, mouse hybridoma supernatant) VH: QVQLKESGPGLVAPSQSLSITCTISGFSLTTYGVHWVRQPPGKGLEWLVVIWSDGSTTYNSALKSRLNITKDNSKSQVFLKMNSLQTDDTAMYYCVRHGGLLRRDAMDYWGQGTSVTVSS VL: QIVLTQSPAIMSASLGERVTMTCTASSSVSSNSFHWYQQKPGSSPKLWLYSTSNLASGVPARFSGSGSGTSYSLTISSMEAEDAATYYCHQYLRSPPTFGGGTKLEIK | N

Consider the record given below.
Assess whether reported Absorbance 450 nm for A-3A08 (antibody, V domains shown) VH: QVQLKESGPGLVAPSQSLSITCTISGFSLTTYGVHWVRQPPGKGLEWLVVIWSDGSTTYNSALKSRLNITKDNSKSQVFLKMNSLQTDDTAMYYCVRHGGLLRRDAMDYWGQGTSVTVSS VL: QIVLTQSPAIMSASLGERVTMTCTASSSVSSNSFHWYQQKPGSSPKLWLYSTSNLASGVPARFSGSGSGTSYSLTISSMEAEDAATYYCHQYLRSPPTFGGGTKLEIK sits at 0.08 A450 or higher. Y
